assay: in vivo; settings: mouse, in vivo, ip
measured.metric: LD50 (µmol/kg)
One number for each entry, in µmol/kg.

Challenge: Output LD50 of O=C(O)CNCC(=O)O [IDA, iminodiacetate]
Response given: 33100

----------
Would you kindly list MTD for each of these compounds?
experiment: in vivo; conditions: mouse, in vivo, ip
One number for each entry, in µmol/kg.

// known answers, use as guide
In [3]: df
Out[3]:
                                   compound  numeric_result
0     O=C(O)CNCC(=O)O [IDA, iminodiacetate]           17000
1  O=C(O)CN(CCN(CC(=O)O)CC(=O)O)CCN(CC(=O)O)CC(=O)O [DTPA, diethylene triamine pentaacetic acid]            8000
2  O=C(O)CN(CCN(CC(=O)O)CC(=O)O)CC(=O)O [EDTA, ethylene-diamine tetraacetic acid]            8000

Challenge: Output MTD of COC(=O)CN(CCN(CC(=O)OC)CC(=O)OC)CCN(CC(=O)OC)CC(=O)OC [DTPA methyl ester]
Response given: 1000
